procedure.summary: Half-life in ICR mouse at 25 mg/kg, IG measured at 0.083 to 24 hrs by LC-MS analysis
Type: ADME, organism-based
assay.context: in vivo, po, time 0.083-24 hrs
property: half-life (min)
Your answer should be a plain number; it is taken to be in min.

The reported half-life of the compound CN1CCN(CCNC(=O)c2cc(-c3ccc4ccccc4c3)nc3c2cnn3-c2ccccc2)CC1 was 318

----------
procedure.summary: MRT (0 to t) in ICR mouse at 25 mg/kg, IG measured at 0.083 to 24 hrs by LC-MS analysis
Format: ADME, organism-based
assay.context: in vivo, po, time 0.083-24 hrs
property: MRT last (h)
Your answer should be a plain number; it is taken to be in h.

The reported MRT last of the molecule CN1CCN(CCNC(=O)c2cc(-c3ccc4ccccc4c3)nc3c2cnn3-c2ccccc2)CC1 was 6.9

----------
system.under.test: Lysine-specific demethylase 5B (Homo sapiens)
procedure.summary: Inhibition of KDM5B (unknown origin) at 10 uM relative to control
property: inhibition (%)
Your answer should be a plain number; it is taken to be in %.

Known inhibition results, listed for orientation:
query.smiles	inhibition (%)
CC(C)n1ncc2c(C(=O)NCc3cn(Cc4ccccc4)nn3)cc(-c3ccc4ccccc4c3)nc21	57
Cc1ccc(-n2ncc3c(C(=O)NCCN4CCN(C)CC4)cc(-c4ccc5ccccc5c4)nc32)cc1C	89
CC(C)c1ccc(-n2ncc3c(C(=O)NCCN4CCN(C)CC4)cc(-c4ccc5ccccc5c4)nc32)cc1	86
Cc1ccccc1-n1ncc2c(C(=O)NCCN3CCN(C)CC3)cc(-c3ccccc3)nc21	83
Cc1ccc(-n2ncc3c(C(=O)NCc4cn(-c5cccc(Br)c5)nn4)cc(-c4ccc5ccccc5c4)nc32)cc1	51
Cc1ccc(-n2ncc3c(C(=O)NCc4cn(-c5ccc(C)cc5C)nn4)cc(-c4ccc5ccccc5c4)nc32)cc1	17

The reported inhibition of the compound Cc1ccc(-n2ncc3c(C(=O)NCc4cn(-c5ccc(F)cc5)nn4)cc(-c4ccc5ccccc5c4)nc32)cc1 was 23

----------
The molecules listed here are annotated with their pIC50.
system.under.test: Lysine-specific demethylase 5B (Homo sapiens, UniProt Q9UGL1)
Sequence (Q9UGL1 whole entry): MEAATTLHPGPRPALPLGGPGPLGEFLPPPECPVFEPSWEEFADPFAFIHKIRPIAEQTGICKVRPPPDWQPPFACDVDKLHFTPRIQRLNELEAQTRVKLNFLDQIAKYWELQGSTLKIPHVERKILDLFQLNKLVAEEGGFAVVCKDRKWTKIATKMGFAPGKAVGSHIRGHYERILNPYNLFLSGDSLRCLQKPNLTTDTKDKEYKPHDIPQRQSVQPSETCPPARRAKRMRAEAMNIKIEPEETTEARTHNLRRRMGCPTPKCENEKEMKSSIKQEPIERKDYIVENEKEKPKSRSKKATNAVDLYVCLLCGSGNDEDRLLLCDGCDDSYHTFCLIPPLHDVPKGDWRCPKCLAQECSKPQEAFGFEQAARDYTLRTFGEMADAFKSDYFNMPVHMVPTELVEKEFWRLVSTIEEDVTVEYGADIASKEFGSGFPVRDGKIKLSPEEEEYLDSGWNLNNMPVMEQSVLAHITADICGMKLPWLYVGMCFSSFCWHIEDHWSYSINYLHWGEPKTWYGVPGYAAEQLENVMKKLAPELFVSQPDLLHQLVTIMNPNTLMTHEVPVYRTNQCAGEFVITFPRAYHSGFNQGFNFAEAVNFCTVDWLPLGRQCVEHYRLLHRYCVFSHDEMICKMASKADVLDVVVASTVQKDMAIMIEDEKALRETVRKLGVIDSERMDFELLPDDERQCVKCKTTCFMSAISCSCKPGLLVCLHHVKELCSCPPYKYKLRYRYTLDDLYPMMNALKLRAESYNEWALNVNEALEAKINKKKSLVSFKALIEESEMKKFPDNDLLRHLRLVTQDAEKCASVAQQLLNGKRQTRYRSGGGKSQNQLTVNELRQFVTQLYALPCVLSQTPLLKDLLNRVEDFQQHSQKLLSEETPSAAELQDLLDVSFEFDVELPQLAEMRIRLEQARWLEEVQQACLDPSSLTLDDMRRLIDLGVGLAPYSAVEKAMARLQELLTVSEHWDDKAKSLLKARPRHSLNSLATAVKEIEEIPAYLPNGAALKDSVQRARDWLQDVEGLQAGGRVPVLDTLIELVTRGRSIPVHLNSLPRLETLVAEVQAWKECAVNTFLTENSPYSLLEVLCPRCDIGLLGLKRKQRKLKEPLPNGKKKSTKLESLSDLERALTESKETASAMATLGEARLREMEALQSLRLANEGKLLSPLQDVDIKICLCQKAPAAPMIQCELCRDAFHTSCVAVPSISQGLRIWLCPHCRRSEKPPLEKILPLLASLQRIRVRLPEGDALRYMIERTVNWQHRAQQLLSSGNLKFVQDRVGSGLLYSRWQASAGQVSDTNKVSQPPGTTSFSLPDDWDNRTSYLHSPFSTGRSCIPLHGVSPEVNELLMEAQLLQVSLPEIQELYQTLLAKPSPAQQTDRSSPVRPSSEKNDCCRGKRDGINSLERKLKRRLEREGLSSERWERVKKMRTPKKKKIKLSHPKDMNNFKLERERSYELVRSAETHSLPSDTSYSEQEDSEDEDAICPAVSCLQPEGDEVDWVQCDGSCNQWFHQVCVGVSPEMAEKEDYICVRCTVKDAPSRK
procedure.summary: Inhibition of KDM5B (unknown origin)
Scale: negative log10 of molar concentration, which is what pIC50 denotes.

molecule	system.under.test	pIC50
Cc1ccc(-n2ncc3c(C(=O)NCc4cn(-c5ccccc5)nn4)cc(-c4ccc5ccccc5c4)nc32)cc1	Lysine-specific demethylase 5B (Homo sapiens, UniProt Q9UGL1)	5.66
CCc1ccc(-c2cc(C(=O)NCCN3CCN(C)CC3)c3cnn(-c4ccccc4)c3n2)cc1	Lysine-specific demethylase 5B (Homo sapiens, UniProt Q9UGL1)	6.42
O=C(NCc1cn(Cc2ccccc2)nn1)c1cc(-c2ccc3ccccc3c2)nc2c1cnn2-c1ccc(C(F)(F)F)cc1	Lysine-specific demethylase 5B (Homo sapiens, UniProt Q9UGL1)	5.20
Cc1ccc(-n2ncc3c(C(=O)NCc4cn(-c5cccc(Br)c5)nn4)cc(-c4ccc5ccccc5c4)nc32)cc1	Lysine-specific demethylase 5B (Homo sapiens, UniProt Q9UGL1)	5.02
Cc1ccc(-c2cc(C(=O)NCCN3CCN(C)CC3)c3cnn(-c4ccccc4)c3n2)cc1	Lysine-specific demethylase 5B (Homo sapiens, UniProt Q9UGL1)	6.18
COc1ccc(-c2cc(C(=O)NCCN3CCN(C)CC3)c3cnn(-c4ccccc4)c3n2)cc1	Lysine-specific demethylase 5B (Homo sapiens, UniProt Q9UGL1)	6.63
Cc1ccc(-n2ncc3c(C(=O)NCc4cn(-c5ccc(C)c(C)c5)nn4)cc(-c4ccc5ccccc5c4)nc32)cc1	Lysine-specific demethylase 5B (Homo sapiens, UniProt Q9UGL1)	5.03
Cc1ccc(-n2ncc3c(C(=O)NCCN4CCN(C)CC4)cc(-c4ccc5ccccc5c4)nc32)cc1	Lysine-specific demethylase 5B (Homo sapiens, UniProt Q9UGL1)	5.87
Cc1ccc(-n2ncc3c(C(=O)NCc4cn(Cc5ccc(C#N)cc5)nn4)cc(-c4ccc5ccccc5c4)nc32)cc1	Lysine-specific demethylase 5B (Homo sapiens, UniProt Q9UGL1)	5.19
Cc1ccc(-n2ncc3c(C(=O)NCc4cn(Cc5ccc(C(F)(F)F)cc5)nn4)cc(-c4ccc5ccccc5c4)nc32)cc1	Lysine-specific demethylase 5B (Homo sapiens, UniProt Q9UGL1)	5.16

The reported pIC50 of the molecule Cc1cccc(-c2cc(C(=O)NCCN3CCN(C)CC3)c3cnn(-c4ccccc4)c3n2)c1 was 5.55

The reported pIC50 of the molecule O=C(O)CNC(=O)C(=O)O [N-OXALYLGLYCINE] was 3.04
